Cited source: ChEMBL document CHEMBL1154307

What MNTC at 72 h was measured for each of the following?
# testName: Cytotoxicity against african green monkey Vero cells after 3 days by MTT assay
# Type: cell-based
# details: chlorocebus sabaeus, read-out: MNCC
Your answer should be a plain number; it is taken to be in µM.

In: Given the compound CC(C)(O)[C@H]1CC=C(C(=O)OC[C@H]2O[C@@H](Oc3cc(C(=O)O)cc(O)c3O)[C@H](O)[C@@H](O)[C@@H]2O)CC1 [CYPELLOCARPIN A] , write its reported MNTC at 72 h.
Out: 30

In: Given the compound COc1cc(C(=O)O)cc(OC)c1O[C@@H]1O[C@H](COC(=O)C2=CC[C@H](C(C)(C)O)CC2)[C@@H](O)[C@H](O)[C@H]1O [EUCALMAIDIN C] , write its reported MNTC at 72 h.
Out: 380

In: Given the compound COc1cc([C@@H]2c3cc(O)c(OC)cc3C[C@H](CO)[C@H]2CO[C@@H]2O[C@H](CO)[C@@H](O)[C@H](O)[C@H]2O)ccc1O , write its reported MNTC at 72 h.
Out: 380

In: Given the compound CC(C)(O)[C@H]1CC=C(C(=O)OC[C@H]2O[C@@H](Oc3c(O)cc(C(=O)O)cc3O)[C@H](O)[C@@H](O)[C@@H]2O)CC1 [EUCALMAIDIN B] , write its reported MNTC at 72 h.
Out: 400

----------
What MNTC at 72 h was measured for each of the following?
# testName: Cytotoxicity against african green monkey Vero cells after 3 days by MTT assay
# Type: cell-based
# details: chlorocebus sabaeus, read-out: MNCC
Your answer should be a plain number; it is taken to be in µM.

In: Given the compound C[C@@H]1O[C@@H](Oc2c(-c3ccc(O)c(O)c3)oc3cc(O)cc(O)c3c2=O)[C@H](O)[C@H](O)[C@H]1O , write its reported MNTC at 72 h.
Out: 10

In: Given the compound CC1(O)CC(=O)c2c(O)cc(O[C@@H]3O[C@H](COC(=O)C4=CC[C@H](C(C)(C)O)CC4)[C@@H](O)[C@H](O)[C@H]3O)cc2O1 (some centres undefined) , write its reported MNTC at 72 h.
Out: 20
